Biological target: T1, murine CD22 protein (ACROBiosystems, SI2-M52Ha) (murine, UniProt P35329 22-708)
T1 construct: extracellular domain; also called murine CD22-ECD; murine CD22-ECD-His
T1 sequence (looked up): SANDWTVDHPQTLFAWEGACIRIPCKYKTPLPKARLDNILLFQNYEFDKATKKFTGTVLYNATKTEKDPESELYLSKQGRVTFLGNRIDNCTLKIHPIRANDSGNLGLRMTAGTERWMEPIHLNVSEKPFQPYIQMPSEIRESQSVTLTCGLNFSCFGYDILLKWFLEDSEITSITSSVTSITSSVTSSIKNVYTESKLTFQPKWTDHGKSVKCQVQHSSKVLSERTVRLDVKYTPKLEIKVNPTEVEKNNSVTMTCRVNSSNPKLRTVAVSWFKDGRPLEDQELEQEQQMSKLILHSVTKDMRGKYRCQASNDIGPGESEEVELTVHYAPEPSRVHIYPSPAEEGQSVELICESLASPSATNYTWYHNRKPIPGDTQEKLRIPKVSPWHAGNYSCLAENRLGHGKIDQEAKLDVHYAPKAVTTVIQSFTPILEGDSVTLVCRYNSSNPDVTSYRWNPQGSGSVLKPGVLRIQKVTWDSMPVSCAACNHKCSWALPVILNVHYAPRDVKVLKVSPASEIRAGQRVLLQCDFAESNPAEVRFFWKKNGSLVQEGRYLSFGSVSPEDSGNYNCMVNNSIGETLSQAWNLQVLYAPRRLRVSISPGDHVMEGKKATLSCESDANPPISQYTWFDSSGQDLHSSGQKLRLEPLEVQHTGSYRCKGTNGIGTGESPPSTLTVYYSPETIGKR
Assay: ELISA, coated murine CD22, 0.01 nM Ab
QUANTITY MEASURED: OD450 (OD450)

INSERT INTO measurements (binder, numeric_value) VALUES
  ('F1.200.11 human-murine chimeric antibody (antibody, human IgG1, kappa, V domains shown, Chimeric, human IgG1 / kappa) VH: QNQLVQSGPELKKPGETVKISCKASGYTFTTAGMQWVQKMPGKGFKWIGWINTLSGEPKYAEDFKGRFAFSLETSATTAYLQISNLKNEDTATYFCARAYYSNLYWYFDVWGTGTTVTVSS VL: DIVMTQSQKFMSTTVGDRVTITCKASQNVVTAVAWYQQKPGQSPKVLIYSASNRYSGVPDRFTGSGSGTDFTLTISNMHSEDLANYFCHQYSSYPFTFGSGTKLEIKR', 0.05),
  ('F1.192.1 human-murine chimeric antibody (antibody, human IgG1, kappa, V domains shown, Chimeric, human IgG1 / kappa) VH: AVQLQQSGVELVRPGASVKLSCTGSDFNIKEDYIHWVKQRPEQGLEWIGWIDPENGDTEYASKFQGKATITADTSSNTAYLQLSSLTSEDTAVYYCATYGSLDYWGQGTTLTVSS VL: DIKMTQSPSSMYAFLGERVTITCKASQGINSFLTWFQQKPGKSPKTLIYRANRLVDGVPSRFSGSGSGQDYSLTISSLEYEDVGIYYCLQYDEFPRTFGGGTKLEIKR', 0.07),
  ('F2.70.2 human-murine chimeric antibody (antibody, human IgG1, lambda, V domains shown, Chimeric, human IgG1 / lambda) VH: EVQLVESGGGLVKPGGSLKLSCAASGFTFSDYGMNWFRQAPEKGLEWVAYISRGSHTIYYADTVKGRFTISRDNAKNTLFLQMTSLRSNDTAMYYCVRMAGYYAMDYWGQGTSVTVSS VL: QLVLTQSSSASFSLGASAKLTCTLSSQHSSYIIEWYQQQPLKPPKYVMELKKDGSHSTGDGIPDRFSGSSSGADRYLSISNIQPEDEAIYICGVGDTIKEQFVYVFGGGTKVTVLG', 0.06),
  ('F1.60.9 human-murine chimeric antibody (antibody, human IgG1, kappa, V domains shown, Chimeric, human IgG1 / kappa) VH: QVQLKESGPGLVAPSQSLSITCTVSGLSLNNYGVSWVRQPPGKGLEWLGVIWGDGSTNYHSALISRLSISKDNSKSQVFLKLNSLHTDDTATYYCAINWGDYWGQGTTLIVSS VL: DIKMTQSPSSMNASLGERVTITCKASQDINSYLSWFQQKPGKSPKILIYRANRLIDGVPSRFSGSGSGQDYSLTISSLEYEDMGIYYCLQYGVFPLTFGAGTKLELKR', 0.06),
  ('F1.257.3 human-murine chimeric antibody (antibody, human IgG1, kappa, V domains shown, Chimeric, human IgG1 / kappa; VL tied by name) VH: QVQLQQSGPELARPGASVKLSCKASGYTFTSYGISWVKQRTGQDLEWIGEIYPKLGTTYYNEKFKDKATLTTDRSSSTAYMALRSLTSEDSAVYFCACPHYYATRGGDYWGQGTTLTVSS VL: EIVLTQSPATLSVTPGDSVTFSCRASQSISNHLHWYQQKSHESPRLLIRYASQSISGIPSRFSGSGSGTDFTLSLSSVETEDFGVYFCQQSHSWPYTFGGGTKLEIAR', 0.05);
